# polymerase ribozyme fitness (log ratio) per record follows
B1: TPR t1 (parent)
chain: GACCAAUCUGCCCUCAGAGCUCGAGAACAUCUUCGGAUGCAGAGGAGGCAGGCUUCGGUGGCGCGAUAGCGCCAACGUCCUCAACCUCCAAUGCAUCCCACCACAUGAUGAUGCCUGAAGAGCCUUGGUUUUUUG

- Variants of: B1
- Assay method text: polymerase ribozyme fitness, log enrichment relative to wild type (log ratio); higher = more active; in vitro selection for triplet polymerase activity
// return a plain number; no unit text

Mutant code | polymerase ribozyme fitness (log ratio)
C12U C28U C49U C82A | -3.01
C12U A26C G45C G61C A75C C82A | -6.28
A27G C62U C94A U106C | -4.15

Exam item: Entry C31U G63U G107A : reported polymerase ribozyme fitness (log ratio) = ?
Marked response: -2.29

Exam item: Also need U78A C124U U125A U133C , thanks.
Marked response: 1.84
